# Target of assay: Phosphoglycerate mutase 1 (PGAM1) (Homo sapiens, UniProt P18669)
# Sequence (P18669 2-254): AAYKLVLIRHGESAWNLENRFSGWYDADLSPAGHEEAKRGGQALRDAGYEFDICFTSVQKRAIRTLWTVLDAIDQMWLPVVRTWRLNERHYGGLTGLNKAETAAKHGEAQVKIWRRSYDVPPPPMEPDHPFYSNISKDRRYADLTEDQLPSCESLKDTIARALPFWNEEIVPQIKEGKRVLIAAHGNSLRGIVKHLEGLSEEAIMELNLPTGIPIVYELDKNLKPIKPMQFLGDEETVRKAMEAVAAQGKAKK
Parameter measured: pKd
Value format note: pKd is -log10 of concentration (mol/L); just state the number.

Input Cc1cccc2c3c(ccc12)C1=C(C(=O)C3=O)[C@@H](C)CO1 [DHT, Dihydrotanshinone I] . Output pKd: 6.16
